A collection of compounds and their measured Ki
Target chain: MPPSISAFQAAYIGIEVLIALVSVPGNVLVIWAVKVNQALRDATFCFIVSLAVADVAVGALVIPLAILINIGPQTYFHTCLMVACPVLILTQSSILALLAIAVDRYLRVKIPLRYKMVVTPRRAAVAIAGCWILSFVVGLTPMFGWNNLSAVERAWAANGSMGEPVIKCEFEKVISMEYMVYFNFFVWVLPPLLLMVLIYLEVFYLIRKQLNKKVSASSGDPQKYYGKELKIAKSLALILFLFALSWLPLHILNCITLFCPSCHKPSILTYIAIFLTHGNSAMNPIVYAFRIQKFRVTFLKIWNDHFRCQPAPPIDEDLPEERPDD
OBSERVABLE: Ki (nM)

- CNc1nc(-n2cc(CN(C)C)nn2)nc2c1ncn2[C@@H]1O[C@H](CO)[C@@H](O)[C@H]1O: 3800
- CCNC(=O)[C@H]1O[C@@H](n2cnc3c(NC)nc(-n4ccnn4)nc32)[C@H](O)[C@@H]1O: 590
- CCNC(=O)[C@H]1O[C@@H](n2cnc3c(NC)nc(-n4cc(-c5ccccn5)nn4)nc32)[C@H](O)[C@@H]1O: 1640
- COc1ccc(Cl)cc1CNc1nc(-n2cc(CC3CCCC3)nn2)nc2c1ncn2[C@@H]1O[C@H](CO)[C@@H](O)[C@H]1O: 830
- CCc1cn(-c2nc(NC)c3ncn([C@@H]4O[C@H](CO)[C@@H](O)[C@H]4O)c3n2)nn1: 2920
- CCNC(=O)[C@H]1O[C@@H](n2cnc3c(NC)nc(-n4cc(CC5CCCC5)nn4)nc32)[C@H](O)[C@@H]1O: 1250
- CCCCc1cn(-c2nc(NC)c3ncn([C@@H]4O[C@H](C(=O)NCC)[C@@H](O)[C@H]4O)c3n2)nn1: 750
- CCNC(=O)[C@H]1O[C@@H](n2cnc3c(NC)nc(-n4cc(Cc5ccccc5)nn4)nc32)[C@H](O)[C@@H]1O: 510

----------
SYSTEM_UNDER_TEST: Adenosine receptors; A1 & A3 (Homo sapiens) (UniProt P30542+P0DMS8)
ASSAY_COMMENT: Selectivity for human adenosine A3 over human adenosine A1 receptor
Format: protein assay
OBSERVABLE: Selectivity ratio

* CNc1nc(-n2cc(CC3CCCCC3)nn2)nc2c1ncn2[C@@H]1O[C@H](CO)[C@@H](O)[C@H]1O | 67
* CCCCc1cn(-c2nc(NC)c3ncn([C@@H]4O[C@H](CO)[C@@H](O)[C@H]4O)c3n2)nn1 | 72
* CCNC(=O)[C@H]1O[C@@H](n2cnc3c(NC)nc(-n4cc(-c5ccccn5)nn4)nc32)[C@H](O)[C@@H]1O | 910
* CNc1nc(-n2cc(CC3CCCC3)nn2)nc2c1ncn2[C@@H]1O[C@H](CO)[C@@H](O)[C@H]1O | 260

----------
A collection of compounds and their measured Ki
Target chain: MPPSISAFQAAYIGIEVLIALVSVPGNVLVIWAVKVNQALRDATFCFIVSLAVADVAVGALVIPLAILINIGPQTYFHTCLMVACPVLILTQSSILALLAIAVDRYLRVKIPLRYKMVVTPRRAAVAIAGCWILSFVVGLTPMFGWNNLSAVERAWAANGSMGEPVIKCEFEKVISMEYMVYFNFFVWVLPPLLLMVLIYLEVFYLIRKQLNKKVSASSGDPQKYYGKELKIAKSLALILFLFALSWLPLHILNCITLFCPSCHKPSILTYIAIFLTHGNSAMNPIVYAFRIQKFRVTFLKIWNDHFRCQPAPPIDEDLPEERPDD
OBSERVABLE: Ki (nM)

* CNc1nc(-c2cn(Cc3cccc(OC)c3)nn2)nc2c1ncn2[C@@H]1O[C@H](CO)[C@@H](O)[C@H]1O | 957
* CNc1nc(-n2cc(CC3CCCC3)nn2)nc2c1ncn2[C@@H]1O[C@H](CO)[C@@H](O)[C@H]1O | 335
* CNc1nc(-c2cn(Cc3ccccc3)nn2)nc2c1ncn2[C@@H]1O[C@H](CO)[C@@H](O)[C@H]1O | 770

----------
SYSTEM_UNDER_TEST: Adenosine receptor A2a (Homo sapiens, UniProt P29274)
Sequence (P29274 whole entry): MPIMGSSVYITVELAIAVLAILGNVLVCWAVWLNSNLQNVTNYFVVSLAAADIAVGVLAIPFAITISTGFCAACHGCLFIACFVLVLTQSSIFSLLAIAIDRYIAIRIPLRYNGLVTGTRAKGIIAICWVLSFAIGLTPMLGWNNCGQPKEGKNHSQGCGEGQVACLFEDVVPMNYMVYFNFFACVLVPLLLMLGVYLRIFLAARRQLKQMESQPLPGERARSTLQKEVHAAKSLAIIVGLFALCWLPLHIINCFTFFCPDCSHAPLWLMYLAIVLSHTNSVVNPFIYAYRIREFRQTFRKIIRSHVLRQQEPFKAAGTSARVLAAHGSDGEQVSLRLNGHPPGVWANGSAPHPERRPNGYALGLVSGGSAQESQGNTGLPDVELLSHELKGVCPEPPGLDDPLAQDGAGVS
ASSAY_COMMENT: Inhibition of [3H]CGS21680 binding to human Adenosine A2A receptor expressed in CHO cells at 10 uM
Format: cell-based
OBSERVABLE: inhibition (%)

- CNc1nc(-c2cn(Cc3cccc(OC)c3)nn2)nc2c1ncn2[C@@H]1O[C@H](CO)[C@@H](O)[C@H]1O: 43
- CNc1nc(-n2cc(-c3ccccc3)nn2)nc2c1ncn2[C@@H]1O[C@H](CO)[C@@H](O)[C@H]1O: 5
- CNc1nc(-n2cc(CCO)nn2)nc2c1ncn2[C@@H]1O[C@H](CO)[C@@H](O)[C@H]1O: 14
- CNc1nc(-n2ccnn2)nc2c1ncn2[C@@H]1O[C@H](CO)[C@@H](O)[C@H]1O: 13
- CNc1nc(-n2cc(CC3CCCC3)nn2)nc2c1ncn2[C@@H]1O[C@H](CO)[C@@H](O)[C@H]1O: 39
- CNc1nc(-n2cc(CN(C)C)nn2)nc2c1ncn2[C@@H]1O[C@H](CO)[C@@H](O)[C@H]1O: 6
- CCNC(=O)[C@H]1O[C@@H](n2cnc3c(NC)nc(-n4cc(-c5ccccn5)nn4)nc32)[C@H](O)[C@@H]1O: 45
- CNc1nc(N=[N+]=[N-])nc2c1ncn2[C@@H]1O[C@H](CO)[C@@H](O)[C@H]1O: 23
- CNc1nc(-n2cc(-c3ccccn3)nn2)nc2c1ncn2[C@@H]1O[C@H](CO)[C@@H](O)[C@H]1O: 40
- CNc1nc(-c2cn(Cc3ccccc3)nn2)nc2c1ncn2[C@@H]1O[C@H](CO)[C@@H](O)[C@H]1O: 21
- CNc1nc(-n2cc(CC3CCCCC3)nn2)nc2c1ncn2[C@@H]1O[C@H](CO)[C@@H](O)[C@H]1O: 16
- CCNC(=O)[C@H]1O[C@@H](n2cnc3c(NC)nc(-n4cc(CC5CCCC5)nn4)nc32)[C@H](O)[C@@H]1O: 36
- CCCOc1ccc(-c2cn(-c3nc(NC)c4ncn([C@@H]5O[C@H](CO)[C@@H](O)[C@H]5O)c4n3)nn2)cc1: 14
- CCNC(=O)[C@H]1O[C@@H](n2cnc3c(NC)nc(N=[N+]=[N-])nc32)[C@H](O)[C@@H]1O: 18
- CCNC(=O)[C@H]1O[C@@H](n2cnc3c(NC)nc(-n4ccnn4)nc32)[C@H](O)[C@@H]1O: 18
- CNc1nc(-c2cn(Cc3cccc(Cl)c3)nn2)nc2c1ncn2[C@@H]1O[C@H](CO)[C@@H](O)[C@H]1O: 39

----------
SYSTEM_UNDER_TEST: Adenosine receptor A2a (Homo sapiens, UniProt P29274)
ASSAY_COMMENT: Inhibition of [3H]CGS21680 binding to human Adenosine A2A receptor expressed in CHO cells at 10 uM
Assay type: cell-based
OBSERVABLE: inhibition (%)

• CNc1nc(-n2cc(Cc3ccccc3)nn2)nc2c1ncn2[C@@H]1O[C@H](CO)[C@@H](O)[C@H]1O = 20
• CCc1cn(-c2nc(NC)c3ncn([C@@H]4O[C@H](CO)[C@@H](O)[C@H]4O)c3n2)nn1 = 18
• CCCCc1cn(-c2nc(NC)c3ncn([C@@H]4O[C@H](CO)[C@@H](O)[C@H]4O)c3n2)nn1 = 23
• CCNC(=O)[C@H]1O[C@@H](n2cnc3c(NC)nc(-n4cc(Cc5ccccc5)nn4)nc32)[C@H](O)[C@@H]1O = 33
• CCCCc1cn(-c2nc(NC)c3ncn([C@@H]4O[C@H](C(=O)NCC)[C@@H](O)[C@H]4O)c3n2)nn1 = 43
